system-name: bovine p110α (Bos taurus, UniProt P32871)
Sequence (P32871 whole entry): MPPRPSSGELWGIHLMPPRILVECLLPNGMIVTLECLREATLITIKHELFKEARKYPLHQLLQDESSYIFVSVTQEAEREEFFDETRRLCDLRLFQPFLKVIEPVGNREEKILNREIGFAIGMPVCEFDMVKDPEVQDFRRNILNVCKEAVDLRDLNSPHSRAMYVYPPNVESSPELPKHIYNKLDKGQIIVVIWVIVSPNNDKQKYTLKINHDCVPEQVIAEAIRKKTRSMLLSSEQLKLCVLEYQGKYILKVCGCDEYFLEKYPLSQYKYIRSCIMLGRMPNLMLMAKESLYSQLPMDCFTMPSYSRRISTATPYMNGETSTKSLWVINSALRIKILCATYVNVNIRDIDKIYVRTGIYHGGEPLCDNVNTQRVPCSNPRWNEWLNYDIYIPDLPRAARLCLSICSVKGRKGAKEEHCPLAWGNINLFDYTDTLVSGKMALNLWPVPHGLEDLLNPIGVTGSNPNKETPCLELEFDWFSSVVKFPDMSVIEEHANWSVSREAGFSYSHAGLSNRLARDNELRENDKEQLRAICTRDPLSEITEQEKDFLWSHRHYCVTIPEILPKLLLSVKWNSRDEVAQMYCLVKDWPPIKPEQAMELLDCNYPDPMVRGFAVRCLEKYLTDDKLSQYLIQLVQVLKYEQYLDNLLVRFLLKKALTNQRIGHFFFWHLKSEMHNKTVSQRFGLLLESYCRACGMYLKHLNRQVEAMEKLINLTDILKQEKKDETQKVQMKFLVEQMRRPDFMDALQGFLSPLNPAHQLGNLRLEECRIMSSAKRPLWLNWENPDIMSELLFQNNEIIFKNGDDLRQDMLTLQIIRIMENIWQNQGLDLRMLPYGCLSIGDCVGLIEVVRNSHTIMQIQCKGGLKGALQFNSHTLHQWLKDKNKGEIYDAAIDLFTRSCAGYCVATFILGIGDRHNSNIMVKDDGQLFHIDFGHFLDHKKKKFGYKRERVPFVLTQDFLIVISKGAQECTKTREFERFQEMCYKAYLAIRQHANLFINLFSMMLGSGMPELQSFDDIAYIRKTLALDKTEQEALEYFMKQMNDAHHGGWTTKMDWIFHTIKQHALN
assay-explanation: Inhibition of PI3K (p110α subtype)
Assay type: biochemical
particulars: bovine p110α, 37° C. for 15 minutes; read-out: IC50, p110α subtype inhibition

[
  {
    "structure-string": "O=C(Nc1cccc(-c2nc(N3CCOCC3)c3oc4ncccc4c3n2)c1)c1ccccn1",
    "system-name": "bovine p110α (Bos taurus, UniProt P32871)",
    "IC50": "< 1000 nM"
  }
]
